Target: Protease (Human immunodeficiency virus 1)
Test: Inhibition of recombinant HIV1 protease at 10 uM by HPLC method
experimental-endpoint: inhibition (%)

item-smiles: O=C(N[C@@H](CO)c1ccccc1)[C@@H](Cc1ccccc1)C[S+]([O-])C[C@H](Cc1ccccc1)C(=O)N[C@@H](CO)c1ccccc1
unit-of-measurement: %
inhibition: 47

item-smiles: O=C(N[C@H](CO)c1ccccc1)[C@@H](CSC[C@@H](Cc1ccccc1)C(=O)N[C@H](CO)c1ccccc1)Cc1ccccc1
unit-of-measurement: %
inhibition: 41

item-smiles: N=[S+]([O-])(C[C@H](Cc1ccccc1)C(=O)N[C@@H](CO)c1ccccc1)C[C@H](Cc1ccccc1)C(=O)N[C@@H](CO)c1ccccc1
unit-of-measurement: %
inhibition: 87

item-smiles: O=C(N[C@@H](CO)c1ccccc1)[C@@H](CSC[C@@H](Cc1ccccc1)C(=O)N[C@@H](CO)c1ccccc1)Cc1ccccc1
unit-of-measurement: %
inhibition: 51

A. O=C(N[C@H](CO)c1ccccc1)[C@@H](Cc1ccccc1)C[S+]([O-])C[C@H](Cc1ccccc1)C(=O)N[C@H](CO)c1ccccc1
B. CNC(=O)[C@H](NC(=O)[C@@H](Cc1ccccc1)C[S+](=N)([O-])C[C@H](Cc1ccccc1)C(=O)N[C@@H](C(=O)NC)C(C)C)C(C)C
Between the entries labelled A and B , which has a larger inhibition value on record? Kindly state the label of the option you pick.
B

P. N=[S+]([O-])(C[C@H](Cc1ccccc1)C(=O)N[C@H](CO)c1ccccc1)C[C@H](Cc1ccccc1)C(=O)N[C@H](CO)c1ccccc1
Q. CNC(=O)[C@@H](NC(=O)[C@@H](CSC[C@@H](Cc1ccccc1)C(=O)N[C@H](C(=O)NC)C(C)C)Cc1ccccc1)C(C)C
Between the entries labelled P and Q , which has a larger inhibition value on record? Kindly state the label of the option you pick.
Q

###

System: Human immunodeficiency virus 1
Experiment: Antiviral activity against HIV1 assessed as inhibition of viral infection at 10 uM by cell-based assay
Type: functional
Listed next: entries and their corresponding inhibition at 10 µM.
# output: bare number, implied unit %

These solved cases illustrate the format of a correct answer.
item-smiles: O=C(N[C@@H](CO)c1ccccc1)[C@@H](CSC[C@@H](Cc1ccccc1)C(=O)N[C@@H](CO)c1ccccc1)Cc1ccccc1
assay-system: Human immunodeficiency virus 1
observed: 15.4
--
item-smiles: CNC(=O)[C@H](NC(=O)[C@@H](Cc1ccccc1)C[S+](=N)([O-])C[C@H](Cc1ccccc1)C(=O)N[C@@H](C(=O)NC)C(C)C)C(C)C
assay-system: Human immunodeficiency virus 1
observed: 5.5

Let us examine a further case.
State the recorded inhibition at 10 µM for this entry: CNC(=O)[C@H](NC(=O)[C@@H](Cc1ccccc1)C[S+]([O-])C[C@H](Cc1ccccc1)C(=O)N[C@@H](C(=O)NC)C(C)C)C(C)C
2.1

###

Tested on: Human immunodeficiency virus 1
Test: Antiviral activity against HIV1 assessed as inhibition of viral infection at 10 uM by cell-based assay
Assay type: functional
experimental-endpoint: inhibition at 10 µM (%)
# output: bare number, implied unit %

These solved cases illustrate the format of a correct answer.
item-smiles: CNC(=O)[C@@H](NC(=O)[C@@H](CSC[C@@H](Cc1ccccc1)C(=O)N[C@H](C(=O)NC)C(C)C)Cc1ccccc1)C(C)C
assay-system: Human immunodeficiency virus 1
experimental-endpoint: inhibition at 10 µM
unit-of-measurement: %
observed: 12.6
--
item-smiles: O=C(N[C@@H](CO)c1ccccc1)[C@@H](Cc1ccccc1)C[S+]([O-])C[C@H](Cc1ccccc1)C(=O)N[C@@H](CO)c1ccccc1
assay-system: Human immunodeficiency virus 1
experimental-endpoint: inhibition at 10 µM
unit-of-measurement: %
observed: 0
--
item-smiles: O=C(N[C@H](CO)c1ccccc1)[C@@H](Cc1ccccc1)C[S+]([O-])C[C@H](Cc1ccccc1)C(=O)N[C@H](CO)c1ccccc1
assay-system: Human immunodeficiency virus 1
experimental-endpoint: inhibition at 10 µM
unit-of-measurement: %
observed: 2.5
--
item-smiles: N=[S+]([O-])(C[C@H](Cc1ccccc1)C(=O)N[C@@H](CO)c1ccccc1)C[C@H](Cc1ccccc1)C(=O)N[C@@H](CO)c1ccccc1
assay-system: Human immunodeficiency virus 1
experimental-endpoint: inhibition at 10 µM
unit-of-measurement: %
observed: 0
--
item-smiles: O=C(N[C@H](CO)c1ccccc1)[C@@H](CSC[C@@H](Cc1ccccc1)C(=O)N[C@H](CO)c1ccccc1)Cc1ccccc1
assay-system: Human immunodeficiency virus 1
experimental-endpoint: inhibition at 10 µM
unit-of-measurement: %
observed: 1.4

Let us examine a further case.
State the recorded inhibition at 10 µM for this entry: N=[S+]([O-])(C[C@H](Cc1ccccc1)C(=O)N[C@H](CO)c1ccccc1)C[C@H](Cc1ccccc1)C(=O)N[C@H](CO)c1ccccc1
0

These data points were gathered from ChEMBL document CHEMBL1157558.
